System: C6 astrocyte cell line
EXPERIMENTAL_READOUT: C6 oxidative stress assay Toxic dose

Recorded C6 oxidative stress assay Toxic dose, per entry:
>>> print(df.to_string())
                                   molecule  value_reported
0  Oc1ccc(O)cc1 [Hydroquinone, reference compound]            None
1  C[C@@H]1C(=O)O[C@H]2[C@H]1CC[C@@]1(C)C=CC(=O)[C@@]3(C)O[C@@]213 [Epoxy(4,5α)-4,5-dihydrosantonin]            None
2  C=C(C)C1(O)OC(=O)C=C1OC (centres unmarked) [Penicillic acid]            none
3  O=C(CCBr)N1CCN(C(=O)CCBr)CC1 [Pipobroman, reference compound]            none

Then there is this molecule:
INPUT: Enter C6 oxidative stress assay Toxic dose (test system C6 astrocyte cell line) for CC(=O)CCC(=O)O [Levulinic acid]
OUTPUT: None

###

Assay: Pharmacokinetic analysis in C57Bl/6 mice
Type: in vivo, mouse
Details: C57Bl/6, plasma, 1 mg/kg; mouse, iv
EXPERIMENTAL_READOUT: clearance (mL/min/kg)
Quick note: give the figure in mL/min/kg, leave out the unit.

INPUT: Entry CN1CCc2cccc3c2[C@H]1Cc1ccc(O)c(O)c1-3 [apomorphine] needs its clearance filled in; supply it.
OUTPUT: 109

###

Test system: 1321N1 astrocyte cell line
Assay: 1321N1 oxidative stress assay (serum withdrawal, DCF)
Details: minimum dose at which toxicity was observed
EXPERIMENTAL_READOUT: 1321N1 oxidative stress assay Toxic dose

COMPOUND	TARGET_OR_SYSTEM	1321N1 oxidative stress assay Toxic dose
CC(=O)O[C@@H]1CC2C(C)(C)C=CC(=O)[C@]2(C)C2CC[C@@]3(C)[C@H](c4ccoc4)OC(=O)C4OC43[C@@]21C (stereo partly shown) [Isogedunin]	1321N1 astrocyte cell line	None
CC(=O)O[C@H]1CCC2(C)C3=C(CCC2C1(C)C)[C@@]1(C)CC[C@@H](C(C)CCC=C(C)C)[C@]1(C)CC3 (stereo partly shown) [Euphol acetate]	1321N1 astrocyte cell line	none
CC1=C2C(=CO[C@H](C)[C@H]2C)C(O)=C(C(=O)O)C1=O [Citrinin]	1321N1 astrocyte cell line	none
CC(=O)O[C@@H]1C[C@H]2C(C)(C)C(=O)C=C[C@]2(C)[C@H]2CC[C@]3(C)C(=CC(=O)O[C@H]3c3ccoc3)[C@@]21C [Deoxygedunin]	1321N1 astrocyte cell line	10 µM
O=C(CC[N+](=O)[O-])OC[C@H]1O[C@@H](O)[C@H](OC(=O)CC[N+](=O)[O-])[C@@H](OC(=O)CC[N+](=O)[O-])[C@@H]1OC(=O)CC[N+](=O)[O-] [Endecaphyllin X]	1321N1 astrocyte cell line	none

INPUT: Enter 1321N1 oxidative stress assay Toxic dose (test system 1321N1 astrocyte cell line) for O=C(/C=C/c1ccc(O)cc1)c1ccc(O)cc1O [Isoliquiritigenin]
OUTPUT: none

INPUT: Enter 1321N1 oxidative stress assay Toxic dose (test system 1321N1 astrocyte cell line) for C=C1CC[C@@H]2[C@](C)(CO)[C@H](O)CC[C@@]2(C)[C@@H]1C/C=C1/C(=O)OC[C@H]1O [Andrographolide]
OUTPUT: 10 µM

###

Test system: Nrf2-ARE pathway
Assay: ARE reporter assay in CHO 4xARE-TK-GFP cells (Spectrum library hits)
Settings: read-out: Cmax (concentration inducing a maximal response); CHO-4xARE-TK, 24 hours, serum free medium
EXPERIMENTAL_READOUT: Cmax (µM)
Quick note: give the figure in µM, leave out the unit.

INPUT: Entry CC(C)(C)c1cc(O)ccc1O [tBHQ, tert-butyl hydroquinone, reference compound] needs its Cmax filled in; supply it.
OUTPUT: 10

###

Tested on: NSC34 cells
Assay: NSC34 oxidative stress assay (serum withdrawal, DCF)
Details: minimum dose at which toxicity was observed
Counter-ions that a name gives are not always drawn.
EXPERIMENTAL_READOUT: NSC34 oxidative stress assay Toxic dose

Recorded NSC34 oxidative stress assay Toxic dose, per entry:
>>> df
                                   compound  target_or_system  value_reported
0            COc1ccc(/C=C/C(=O)c2ccccc2)cc1       NSC34 cells            None
1  CC1(C)C2CC(=O)O[C@@]3(C)C4=CC(=O)O[C@@H](c5ccoc5)[C@]4(C)CCC3[C@@]2(C)C=C[C@H]1O (stereo partly drawn)       NSC34 cells            None
2  CCCCCc1c2c(cc(O)c1C(=O)O)OC(=O)c1c(cc(OC)cc1C(=O)CCCC)O2       NSC34 cells            none
3    S=C=NCc1ccccc1 [Benzyl isothiocyanate]       NSC34 cells            none
4  O=c1c2ccccc2[se]n1-c1ccccc1 [Ebselen, reference compound]       NSC34 cells            none

INPUT: Enter NSC34 oxidative stress assay Toxic dose (test system NSC34 cells) for CC(=O)Oc1ccc(O)cc1
OUTPUT: none

INPUT: Enter NSC34 oxidative stress assay Toxic dose (test system NSC34 cells) for COc1cc(O)c(C)c(O)c1 [2,6-Dihydroxy-4-methoxytoluene]
OUTPUT: None

INPUT: Enter NSC34 oxidative stress assay Toxic dose (test system NSC34 cells) for O=C1C=C2C=C[C@@H]3C[C@@]2(O1)[C@H]1CCCCN31
OUTPUT: None

INPUT: Enter NSC34 oxidative stress assay Toxic dose (test system NSC34 cells) for CC1=CC(=O)C(C(C)C)=CC1=O
OUTPUT: None

INPUT: Enter NSC34 oxidative stress assay Toxic dose (test system NSC34 cells) for CC(COc1ccccc1)NC(C)C(O)c1ccc(O)cc1 (stereo not drawn) [Isoxsuprine hydrochloride, reference compound]
OUTPUT: none

INPUT: Enter NSC34 oxidative stress assay Toxic dose (test system NSC34 cells) for CC(=O)OC1CC[C@@]2(C)C(CC[C@H]3[C@@H]4CC=C(C(C)=O)[C@@]4(C)C(=O)C[C@@H]32)C1 (stereo partly drawn)
OUTPUT: None

INPUT: Enter NSC34 oxidative stress assay Toxic dose (test system NSC34 cells) for C=CC(C1=CC(=O)C=CC1=O)c1ccccc1 (stereo not drawn)
OUTPUT: None

INPUT: Enter NSC34 oxidative stress assay Toxic dose (test system NSC34 cells) for CC(C)N(C(=O)CCl)c1ccccc1
OUTPUT: 10 µM

INPUT: Enter NSC34 oxidative stress assay Toxic dose (test system NSC34 cells) for C=C1CC[C@@H]2[C@](C)(CO)[C@H](O)CC[C@@]2(C)[C@@H]1C/C=C1/C(=O)OC[C@H]1O [Andrographolide]
OUTPUT: 10 µM

INPUT: Enter NSC34 oxidative stress assay Toxic dose (test system NSC34 cells) for CC(=O)O[C@H]1CCC2(C)C3=C(CCC2C1(C)C)[C@@]1(C)CC[C@@H](C(C)CCC=C(C)C)[C@]1(C)CC3 (stereo partly drawn) [Euphol acetate]
OUTPUT: none

INPUT: Enter NSC34 oxidative stress assay Toxic dose (test system NSC34 cells) for CC1=C2C(=CO[C@H](C)[C@H]2C)C(O)=C(C(=O)O)C1=O
OUTPUT: none

###

Tested on: C6 astrocyte cell line
Test: C6 oxidative stress assay (serum withdrawal, DCF)
Details: Rattus norvegicus, Astrocyte, read-out: C6 oxidative stress assay IC50
Structures can show the parent of a compound that is named as a salt.
EXPERIMENTAL_READOUT: pIC50
Please note pIC50 is a logarithmic value: minus log10 of concentration in mol/L. Answer with that number alone.

INPUT: Entry CCCCCc1c2c(cc(O)c1C(=O)O)OC(=O)c1c(cc(OC)cc1C(=O)CCCC)O2 needs its pIC50 filled in; supply it.
OUTPUT: 5.50

INPUT: Entry CC(COc1ccccc1)NC(C)C(O)c1ccc(O)cc1 (stereo not drawn) [Isoxsuprine hydrochloride, reference compound] needs its pIC50 filled in; supply it.
OUTPUT: 4.64

INPUT: Entry Oc1ccc(O)cc1 [Hydroquinone, reference compound] needs its pIC50 filled in; supply it.
OUTPUT: 5.15

INPUT: Entry CC1=CC(=O)C(C(C)C)=CC1=O needs its pIC50 filled in; supply it.
OUTPUT: 7.85

INPUT: Entry C=C1C(=O)O[C@H]2[C@H]1CC/C(C)=C/CC[C@@]1(C)O[C@@H]21 [Parthenolide] needs its pIC50 filled in; supply it.
OUTPUT: 5.51

INPUT: Entry C=CC(C1=CC(=O)C=CC1=O)c1ccccc1 (stereo not drawn) needs its pIC50 filled in; supply it.
OUTPUT: 4.34

INPUT: Entry CCc1cccc(CC)c1N(COC)C(=O)CCl needs its pIC50 filled in; supply it.
OUTPUT: 5.21

INPUT: Entry CC(=O)CCC(=O)O needs its pIC50 filled in; supply it.
OUTPUT: 5.11

INPUT: Entry CC(=O)OC1CC[C@@]2(C)C(CC[C@H]3[C@@H]4CC=C(C(C)=O)[C@@]4(C)C(=O)C[C@@H]32)C1 (stereo partly drawn) needs its pIC50 filled in; supply it.
OUTPUT: 5.27

INPUT: Entry S=C=NCc1ccccc1 [Benzyl isothiocyanate] needs its pIC50 filled in; supply it.
OUTPUT: 5.46

INPUT: Entry CC1(C)C(=O)C=C[C@]2(C)[C@H]3CC[C@@]4(C)[C@H](c5ccoc5)OC(=O)[C@H]5O[C@]54[C@]3(C)[C@H](O)C[C@@H]12 needs its pIC50 filled in; supply it.
OUTPUT: 5.27

INPUT: Entry O=C(/C=C/c1ccc(O)cc1)c1ccc(O)cc1O needs its pIC50 filled in; supply it.
OUTPUT: 4.55

Values from paper PMC3684770
